- experimental.details: Caspase-3/7 induction in CHO-K1 cells by small molecules, qHTS cell viability counter screen (AID 1346979); note: nearly all actives have a fitted effect of over 35% in size
- setup.conditions: CellTiter-Fluor fluorescence, 17 h; series mostly up to 92.4 µM
Results filed as inconclusive are left out. Activity calls are given as the source filed them. Calls come from the whole dose curve; as a rule, active = well fitted cell-killing curve with a large enough effect in the repeat runs; inconclusive = weak or mixed curves, or effect the other way; inactive = no such curve, though single readings can be large or run the other way.
Please state which outcome applies, choosing from active, inactive

# count of solved cases: 5
molecule | class.assignment
CCCCC(CC)C(=O)OCCOCCOCCOC(=O)C(CC)CCCC (stereo unspecified) | inactive
C=C(C)C(=O)OCCC[Si](OC)(OC)OC | inactive
Nc1c(S(=O)(=O)O)cc(Br)c2c1C(=O)c1ccccc1C2=O | active
CCOC(=O)C1OC1c1ccccc1 (stereo unspecified) | inactive
NCCNCCNCCNCCN | inactive

Ask: Tell me the assay call for NCc1cccc(CN)c1 please.
Result: inactive
